Exercise: state measured log10 IC50 for each of the compounds provided.
# measured_target: CDK2/Cyclin E1 (Homo sapiens)
# procedure_details: CDK2/Cyclin E1 TR-FRET biochemical assay, 1 mM ATP
# test_settings: 0.15 μM Rb (Ser780)-biotin substrate, 90 min reaction, Table 2
All values: log10 IC50 [nM].

compound | log10 IC50
CC(C)(C)c1cnc(C2CCC(c3cc(Nc4ccc(S(N)(=O)=O)cc4F)n[nH]3)C2)o1 (single isomer, unassigned) [Example 6c] | 3.28
CC(C)c1ccnc(C2CCC(c3cc(Nc4ccc(S(N)(=O)=O)cc4F)n[nH]3)C2)n1 (stereo not shown) | 0.66
Cc1nc(C2CCC(c3cc(Nc4ccc5c(c4F)CS(=O)(=O)C5)n[nH]3)C2)oc1C(C)(C)C (stereo not shown) | 0.48
Cc1cc(C(C)(C)C)cc(C2CCC(c3cc(Nc4ccc(S(N)(=O)=O)cc4F)n[nH]3)C2)n1 (stereo not shown) | 3.75
CC(C)c1cnc(C2CCC(c3cc(Nc4ccc5c(c4F)CNS5(=O)=O)n[nH]3)C2)o1 (single isomer, unassigned) [Example 109a] | 0.93
CC(C)(C)C1CCC(C2CCC(c3cc(Nc4ccc5c(c4F)CNS5(=O)=O)n[nH]3)C2)O1 (stereo not shown) | 3.25

Now look at this one.
Entry Cc1cccc(C2CCC(c3cc(Nc4ccc5c(c4F)CNS5(=O)=O)n[nH]3)C2)n1 (stereo not shown) , log10 IC50 reported as 3.64
